# Assayed System: CYP3A4 (Homo sapiens, UniProt P08684)
# Sequence (P08684 whole entry): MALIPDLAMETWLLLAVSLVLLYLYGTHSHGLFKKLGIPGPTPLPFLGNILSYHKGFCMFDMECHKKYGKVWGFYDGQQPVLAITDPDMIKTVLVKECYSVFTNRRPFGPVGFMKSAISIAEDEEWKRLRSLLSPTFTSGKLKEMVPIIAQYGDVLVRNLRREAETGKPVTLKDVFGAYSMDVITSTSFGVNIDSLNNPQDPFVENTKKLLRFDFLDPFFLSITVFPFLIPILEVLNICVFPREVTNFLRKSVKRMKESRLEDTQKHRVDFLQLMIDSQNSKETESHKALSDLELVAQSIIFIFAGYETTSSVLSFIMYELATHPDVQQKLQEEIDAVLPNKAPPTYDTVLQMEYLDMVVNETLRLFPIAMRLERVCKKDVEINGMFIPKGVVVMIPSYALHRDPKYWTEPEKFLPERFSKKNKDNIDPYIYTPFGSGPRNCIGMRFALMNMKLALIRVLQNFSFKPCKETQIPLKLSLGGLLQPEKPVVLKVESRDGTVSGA
# Test Method Notes: Determination of IC50 against CYP3A4 by measurement of inhibition of testosterone metabolism (human liver microsomes, 6-β-OH-testosterone by LC-MS/MS)
# Type: biochemical
# Set-up: 0.1 mg/mL human liver microsomes
# Experimental Conditions: read-out: IC50 (Testo.)
Classify: 1 (yes) when IC50 is strictly less than 50 nM; 0 (no) when IC50 is not.

Consider the following illustrative entries.
{"columns": ["Molecule", "Category"],
 "data": [
  ["Cc1ccccc1CNC(=O)c1ccccc1S(=O)(=O)Nc1cccnc1 [Example 74]", "1 (yes)"],
  ["CCOc1cncc(NS(=O)(=O)c2ccccc2C(=O)N2CCCC2)c1 [Example 297]", "0 (no)"],
  ["COc1cncc(NS(=O)(=O)c2ccc(OCCCN(C)C)cc2C(=O)NCc2ccc(F)cc2)c1 [Example 266]", "0 (no)"],
  ["COCCNC(=O)c1ccccc1S(=O)(=O)Nc1cccnc1 [Example 261]", "0 (no)"],
  ["CCCCN(C)C(=O)c1ccccc1S(=O)(=O)Nc1cnccc1OCC [Example 274]", "1 (yes)"],
  ["CC(C)(CN1CCOCC1)NC(=O)c1ccccc1S(=O)(=O)Nc1cccnc1 [Example 33]", "0 (no)"],
  ["O=C(c1ccccc1S(=O)(=O)Nc1cncc(Br)c1)N1CCCCC1 [Example 392]", "1 (yes)"],
  ["Cc1cc(CNC(=O)c2ccccc2S(=O)(=O)Nc2cnccc2C)ccc1F [Example 167]", "1 (yes)"],
  ["COc1cncc(NS(=O)(=O)c2ccccc2C(=O)NC(C)C(C)C)c1 (stereo not shown) [Example 313]", "0 (no)"],
  ["O=C(c1ccccc1S(=O)(=O)Nc1cccnc1)N1CCCC1 [Example 20]", "0 (no)"]
]}

Threshold test, IC50 < 50 nM: CCOc1ccncc1NS(=O)(=O)c1ccccc1C(=O)NCCOC [Example 217] 0 (no)

Try this molecule too: COc1cncc(NS(=O)(=O)c2ccccc2C(=O)NCc2c(F)cccc2Cl)c1 [Example 213] 1 (yes)

---

# Assayed System: CYP3A4 (Homo sapiens)
# Test Method Notes: Determination of compound Kiapp against recombinant CYP3A4 enzyme (BFC fluorescent substrate)
# Type: biochemical
# Experimental Conditions: Baculo. enzyme preparation, read-out: Kiapp (BFC, Baculo.)
Classify: y when Ki is strictly less than 300 nM; n when Ki is not.

Consider the following illustrative entries.
{"columns": ["Compound", "Category"],
 "data": [
  ["CC(C)(CN1CCOCC1)NC(=O)c1ccccc1S(=O)(=O)Nc1cccnc1 [Example 33]", "n"],
  ["CCC(C)(C)NC(=O)c1ccccc1S(=O)(=O)Nc1cnccc1OC [Example 106]", "n"],
  ["COCCN(C)C(=O)c1ccccc1S(=O)(=O)Nc1cnccc1C [Example 170]", "n"]
]}

Threshold test, Ki < 300 nM: COc1cncc(NS(=O)(=O)c2ccccc2C(=O)NCc2c(F)ccc(C)c2F)c1 [Example 180] y

Try this compound too: COc1cncc(NS(=O)(=O)c2ccccc2C(=O)N[C@H]2C[C@@H]2c2ccccc2)c1 [Example 232] y

Try this compound too: CN(c1cccnc1)S(=O)(=O)c1ccccc1C(=O)NCC1CCCC1 [Example 332] n

Try this compound too: CCOCCNC(=O)c1ccccc1S(=O)(=O)Nc1cnccc1OCC [Example 218] n

---

# Assayed System: UniProtKB P08684
# Test Method Notes: Determination of IC50 against CYP3A4 by measurement of inhibition of midazolam metabolism (human liver microsomes, 1-hydroxymidazolam by LC-MS/MS)
# Type: biochemical
# Set-up: 0.1 mg/mL human liver microsomes
# Experimental Conditions: 2 μM midazolam, 0.1 mg/mL human liver microsomes
Value Type: log10 of IC50 (log10 of the value in nM)
All values: base-10 log of IC50 in nM.

Some molecules with recorded log10 of IC50:
{"columns": ["Molecule", "log10 of IC50"],
 "data": [
  ["COc1cncc(NS(=O)(=O)c2ccccc2C(=O)NCC2CCCC2)c1", 1.34],
  ["CCCCNC(=O)c1ccccc1S(=O)(=O)Nc1cccnc1", 1.93],
  ["O=C(NCc1ccc(F)c(F)c1)c1ccccc1S(=O)(=O)Nc1cccnc1", 1.20],
  ["COc1cncc(NS(=O)(=O)c2ccc(OC3CCNCC3)cc2C(=O)N(C)C(C)C)c1", 1.84],
  ["CCC(C)NC(=O)c1ccccc1S(=O)(=O)Nc1cnccc1OC (stereo not shown)", 1.93],
  ["CCCCNC(=O)c1ccccc1S(=O)(=O)N(C)c1cccnc1", 2.05],
  ["O=C(c1ccccc1S(=O)(=O)Nc1cccnc1)N1CCCC1", 2.58],
  ["COc1ccncc1NS(=O)(=O)c1ccccc1C(=O)NCCc1ccccc1C", 0.95],
  ["COc1cncc(NS(=O)(=O)c2ccccc2C(=O)NCc2cc(F)ccc2F)c1", 1.20],
  ["COCCNC(=O)c1ccccc1S(=O)(=O)Nc1cnccc1C", 2.65]
]}

What value of log10 of IC50 on UniProtKB P08684 does CCOc1ccncc1NS(=O)(=O)c1ccccc1C(=O)NC(C)(C)CC have? 1.32

---

# Assayed System: CYP3A4 (Homo sapiens, UniProt P08684)
# Test Method Notes: Determination of IC50 against CYP3A4 by measurement of inhibition of midazolam metabolism (human liver microsomes, 1-hydroxymidazolam by LC-MS/MS)
# Assay type: biochemical
# Set-up: 0.1 mg/mL human liver microsomes
# Experimental Conditions: 2 μM midazolam, 0.1 mg/mL human liver microsomes
I'd appreciate it if you could supply log10(IC50) values for the items below.
All values: base-10 log of IC50 in nM.

Some compounds with recorded log10(IC50):
{"columns": ["Compound", "log10(IC50)"],
 "data": [
  ["COc1cncc(NS(=O)(=O)c2ccccc2C(=O)NCCC(C)C)c1 [Example 379]", 0.90],
  ["CCCN(CC)C(=O)c1ccccc1S(=O)(=O)Nc1cncc(OC)c1 [Example 195]", 1.18],
  ["CCN(CCn1cccn1)C(=O)c1ccccc1S(=O)(=O)Nc1cccnc1 [Example 40]", 2.25],
  ["Cc1ccncc1NS(=O)(=O)c1ccccc1C(=O)N(C)Cc1ccc(F)c(F)c1 [Example 172]", 1.64]
]}

Give me log10(IC50) for each of these compounds, listed below.
1. COc1cc(CNC(=O)c2ccccc2S(=O)(=O)Nc2cccnc2)cc(OC)c1 [Example 51]
2. COCCN(C(=O)c1ccccc1S(=O)(=O)Nc1cncc(N)c1)C(C)C [Example 114]
3. COc1cncc(NS(=O)(=O)c2ccccc2C(=O)N2CCC(OC)CC2)c1 [Example 366]
4. COc1cncc(NS(=O)(=O)c2ccccc2C(=O)N(Cc2nccn2C)C(C)C)c1 [Example 97]

1: 1.53; 2: 2.13; 3: 2.40; 4: 2.03

Give me log10(IC50) for each of these compounds, listed below.
1. COc1ccncc1NS(=O)(=O)c1ccccc1C(=O)N[C@@H](C)C(C)C [Example 108]
2. CCCN(CC1CC1)C(=O)c1ccccc1S(=O)(=O)Nc1cncc(OC)c1 [Example 390]
3. COc1cncc(NS(=O)(=O)c2ccccc2C(=O)NCc2c(Cl)cccc2Cl)c1 [Example 133]
4. CCN(C(=O)c1ccccc1S(=O)(=O)Nc1cncc(OC)c1)C(C)C [Example 109]
5. CNC(=O)c1ccc(CNC(=O)c2ccccc2S(=O)(=O)Nc2cccnc2)cc1 [Example 81]
6. Cc1ccc(CNC(=O)c2ccccc2S(=O)(=O)Nc2cnccc2C)cc1F [Example 166]
7. CCC(C)CNC(=O)c1ccccc1S(=O)(=O)Nc1cnccc1OC (centres unmarked) [Example 116]

1. 1.99
2. 1.26
3. 1.26
4. 1.54
5. 2.70
6. 1.36
7. 1.52

Give me log10(IC50) for each of these compounds, listed below.
1. COc1ccncc1NS(=O)(=O)c1ccccc1C(=O)N(C)Cc1cccc(F)c1 [Example 104]
2. O=C(NC1Cc2ccccc2C1)c1ccccc1S(=O)(=O)Nc1cccnc1 [Example 58]
3. CCN(Cc1ccccc1)C(=O)c1ccccc1S(=O)(=O)Nc1cccnc1 [Example 78]
4. COc1cncc(NS(=O)(=O)c2ccc(OCCN3CCNCC3)cc2C(=O)N(C)C(C)C)c1 [Example 242]
5. Cc1ccncc1NS(=O)(=O)c1ccccc1C(=O)NCc1ccc(F)c(Cl)c1 [Example 168]

1. 1.54
2. 1.42
3. 1.34
4. 2.40
5. 0.95

Give me log10(IC50) for each of these compounds, listed below.
1. O=C(NCc1ccc(F)c(F)c1)c1ccccc1S(=O)(=O)Nc1cncc(OCc2ccccc2)c1 [Example 393]
2. O=C(NCCc1ccccc1)c1ccccc1S(=O)(=O)Nc1cccnc1 [Example 77]
3. COc1cncc(NS(=O)(=O)c2ccccc2C(=O)NCc2cc(Cl)ccc2F)c1 [Example 151]
4. CCOc1cncc(NS(=O)(=O)c2ccccc2C(=O)NCCC(C)C)c1 [Example 296]

1: 0.90; 2: 1.36; 3: 1.45; 4: 1.08

Hey, just so you know, these numbers are from patent US7868026B2.
